Biological target: CCR9 (Homo sapiens (Human), UniProt P51686)
Sequence (P51686 whole entry): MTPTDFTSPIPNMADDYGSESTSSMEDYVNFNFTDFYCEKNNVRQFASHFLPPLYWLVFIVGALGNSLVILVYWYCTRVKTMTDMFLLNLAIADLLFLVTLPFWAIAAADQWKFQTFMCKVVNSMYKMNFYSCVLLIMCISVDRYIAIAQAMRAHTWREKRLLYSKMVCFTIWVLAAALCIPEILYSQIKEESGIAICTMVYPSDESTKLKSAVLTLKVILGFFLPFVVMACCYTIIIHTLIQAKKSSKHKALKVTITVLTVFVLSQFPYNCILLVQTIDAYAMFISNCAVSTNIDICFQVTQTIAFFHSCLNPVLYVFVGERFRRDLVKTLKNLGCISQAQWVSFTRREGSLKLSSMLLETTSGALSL
Test: FLIPR calcium flux assay using MOLT4 cells, TECK stimulation
Format: cell-based
Conditions: MOLT4 cells (human T-cell line)
Experimental: Biological Activity: FLIPR Assay Using MOLT4 Cells A calcium flux assay was used to determine the ability of the compounds to interfere with the binding between CCR9 and its chemokine ligand (TECK) in MOLT4 cells (a human T-cell line). […] The increased in intracellular calcium levels was measured with the FLIPR instrument. The potency of the compound as CCR9 antagonist was calculated as an IC50 using GraphPad Prism software (variable slope four parameter). […]
metric_name: Ki (µM)

Below, each entry is followed by its recorded Ki result.
CC(C)(C)c1ccc(S(=O)(=O)Nc2ccc(Cl)c3c2C(=O)N(c2cccc(C#N)c2)C3=O)cc1
0.074
CC(C)(C)c1ccc(S(=O)(=O)Nc2ccc(Cl)c3c2C(=O)N(CCc2ccc[n+]([O-])c2)C3=O)cc1
0.184
Cc1ccc(NS(=O)(=O)c2ccc(OC(F)(F)F)cc2)c2c1C(=O)N(Cc1cccnc1)C2=O
1
COc1cccc(N2C(=O)c3c(Cl)ccc(NS(=O)(=O)c4ccc(C(C)(C)C)cc4)c3C2=O)c1
0.083
Cc1cc(N2C(=O)c3c(Cl)ccc(NS(=O)(=O)c4ccc(C(C)(C)C)cc4)c3C2=O)c[n+]([O-])c1
0.02

I. CCOc1cccc(N2C(=O)c3c(Cl)ccc(NS(=O)(=O)c4ccc(C(C)(C)C)cc4)c3C2=O)[n+]1[O-]
II. COC(=O)c1cc(N2C(=O)c3c(Cl)ccc(NS(=O)(=O)c4ccc(C(C)(C)C)cc4)c3C2=O)n(C)n1
III. CC(C)(C)c1ccc(S(=O)(=O)Nc2ccc(Cl)c3c2C(=O)N(c2cncs2)C3=O)cc1
IV. CCOc1ccncc1N1C(=O)c2c(Cl)ccc(NS(=O)(=O)c3ccc(C(C)(C)C)cc3)c2C1=O
V. Cc1ccc(NS(=O)(=O)c2ccc(C(C)(C)C)cc2)c2c1C(=O)N(Cc1cccnc1)C2=O
Task: // sort entries: Ki, high to low Lab note: final answer is the ordered label list.
Output: V, III, I, IV, II

a. COc1cc(CN2C(=O)c3c(Cl)ccc(NS(=O)(=O)c4ccc(C(C)(C)C)cc4)c3C2=O)c[n+]([O-])c1
b. CC(C)(C)c1ccc(S(=O)(=O)Nc2ccc(Cl)c3c2C(=O)N(Cc2ncccn2)C3=O)cc1
Task: Compare the recorded Ki of a and b ; state which is larger. Output the label that corresponds to your choice.
Output: a

====

target: UniProt:P51686; experiment: FLIPR calcium flux assay using hCCR9 over expressed cells (Chem1-hCCR9), TECK stimulation; assay type: cell-based; conditions: Chem1-hCCR9 overexpressing cells
pKi: −log10 of the molar value.
metric_name: pKi

Below, each entry is followed by its recorded pKi result.
CC(C)(C)c1ccc(S(=O)(=O)Nc2ccc(Cl)c3c2C(=O)N(Cc2cccnc2)C3=O)cc1
7.57
Cn1nccc1N1C(=O)c2c(Cl)ccc(NS(=O)(=O)c3ccc(C(C)(C)C)cc3)c2C1=O
7.64
CC(C)(C)c1ccc(S(=O)(=O)Nc2ccc(Cl)c3c2C(=O)N(Cc2ccc[nH]c2=O)C3=O)cc1
7.92

P. Cc1cccc(N2C(=O)c3c(Cl)ccc(NS(=O)(=O)c4ccc(C(C)(C)C)cc4)c3C2=O)n1
Q. COc1ccc(N2C(=O)c3c(Cl)ccc(NS(=O)(=O)c4ccc(C(C)(C)C)cc4)c3C2=O)c(C)n1
R. CC(C)(C)c1ccc(S(=O)(=O)Nc2ccc(Cl)c3c2C(=O)N(c2cccc(C#N)n2)C3=O)cc1
S. CCOc1cncc(N2C(=O)c3c(Cl)ccc(NS(=O)(=O)c4ccc(C(C)(C)C)cc4)c3C2=O)c1
Task: Sort low-to-high on pKi, please. Lab note: final answer is the ordered label list.
Output: S, R, Q, P
(S: 6.62, R: 7.44, Q: 7.89, P: 8.22)

The measurements presented in this section are drawn from patent US9969687B2.
